Target: T1, Rad51-L2 (Schizosaccharomyces pombe, UniProt P36601 1-365, V295A)
T1 sequence: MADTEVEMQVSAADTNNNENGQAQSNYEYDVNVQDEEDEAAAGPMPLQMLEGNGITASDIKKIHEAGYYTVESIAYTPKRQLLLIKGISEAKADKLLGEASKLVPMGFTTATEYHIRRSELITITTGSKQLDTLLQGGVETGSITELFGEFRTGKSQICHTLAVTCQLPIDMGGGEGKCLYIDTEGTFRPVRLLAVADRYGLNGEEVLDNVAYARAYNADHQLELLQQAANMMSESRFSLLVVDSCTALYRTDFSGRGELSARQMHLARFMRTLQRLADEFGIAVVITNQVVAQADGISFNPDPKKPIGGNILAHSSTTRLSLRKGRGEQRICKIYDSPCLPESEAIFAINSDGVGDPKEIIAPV
Experiment: fluorescence anisotropy; 1 mM ATP, 3 mM MgCl2; Hill n 2.59; 30 mM HEPES-KOH pH 7.5, 100 mM KCl, 3 mM MgCl2, 1 mM DTT, 5% glycerol, 1 mM ATP, 25 C (EMSA: 2 mM ATP, 37 C, then 0.2% glutaraldehyde)
Conditions: protein: recombinant; label: 5' TAMRA

# binder, unit descriptor, Kd
records = [
    ("[TAMRA]dT72 (ssDNA) DNA: TTTTTTTTTTTTTTTTTTTTTTTTTTTTTTTTTTTTTTTTTTTTTTTTTTTTTTTTTTTTTTTTTTTTTTTT", "nM", 308),
]

Origin of the recorded values: paper PMC7289862
